Tested on: MDR1-MDCK cell monolayers
Experiment: MDCK-MDR1 permeability assay, blood-brain-barrier (BBB) penetration potential
Type: in vitro ADME
Details: efflux ratio
Protocol: Each determination is performed in duplicate. […] Analytical conditions are outlined below. Papp=(dCr/dt)×Vr/(A×CA) (1)
Property: General MDCK-MDR1: Efflux; scope: individual compounds
outcomeMeasure: General MDCK-MDR1: Efflux

[
  {
    "compound": "COc1cc(-c2ccc(-c3ccc(N(C)C4CC5CCC(C)(C4)N5)nn3)c(O)c2)cnn1 (single isomer, unassigned; ent2)",
    "testResult": 133
  },
  {
    "compound": "COc1cc(-c2ccc(-c3ccc(N(C)C4CC5CCCC(C)(C4)N5)nn3)c(O)c2)cnn1 (single isomer, unassigned; ent2)",
    "testResult": 137
  },
  {
    "compound": "CN(c1ccc(-c2ccc(-c3cnn(C)c3)cc2O)nn1)C1CC2CCC(C)(N2)C1F (single isomer, unassigned; ent1)",
    "testResult": 17
  }
]
